Exercise: state measured inhibition at 10 µM for each of the molecules provided.
- assayed.system: recombinant human plasminogen activator inhibitor-1 (PAI-1) (Homo sapiens)
- Construct: purchased Molecular Innovations, Royal Oak, Mich
- Sequence (P05121 24-402): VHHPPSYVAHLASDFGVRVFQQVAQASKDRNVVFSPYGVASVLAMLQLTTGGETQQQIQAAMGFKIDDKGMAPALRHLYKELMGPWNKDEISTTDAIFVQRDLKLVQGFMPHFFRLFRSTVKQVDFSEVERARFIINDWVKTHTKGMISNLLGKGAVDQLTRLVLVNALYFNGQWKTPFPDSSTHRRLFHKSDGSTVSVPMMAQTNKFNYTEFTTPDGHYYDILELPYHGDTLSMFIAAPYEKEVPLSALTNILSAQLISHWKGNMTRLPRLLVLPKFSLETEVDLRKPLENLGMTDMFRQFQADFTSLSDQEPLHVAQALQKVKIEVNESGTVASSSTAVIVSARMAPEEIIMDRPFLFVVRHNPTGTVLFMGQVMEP
- assay.info: Primary screen for the PAI-1 inhibition
- Assay type: biochemical
- reported.conditions: 10 μM test compound
Give bare numbers, in %.

In the examples that follow, each entry is paired with its recorded inhibition at 10 µM.
>>> print(df.to_string())
                                   molecule  measured_value
0  O=C(O)C(Cc1ccccc1)Oc1ccc2cc(-c3nc(-c4ccccc4)sc3Br)ccc2c1Br (centres unmarked) [Example 7]              20
1  O=C(O)COc1ccc2cc(-c3csc(-c4ccccc4)n3)ccc2c1Br [Example 4]              40
2  c1ccc(-c2nc(-c3ccc4cc(OCc5nnn[nH]5)ccc4c3)cs2)cc1 [Example 2]               6
3  O=C(O)c1ccc(COc2ccc3cc(-c4csc(-c5ccccc5)n4)ccc3c2Br)cc1 [Example 8]              38
4  O=C(O)C(Cc1ccccc1)Oc1ccc2cc(-c3csc(-c4ccccc4)n3)ccc2c1Br (centres unmarked) [Example 3]               1

Working through the 3 molecules below one at a time, give inhibition at 10 µM for each.
1. O=C(O)C(Cc1ccccc1)Oc1ccc2cc(-c3csc(-c4ccccc4)n3)ccc2c1 (centres unmarked) [Example 1]
2. O=C(O)COc1ccc2cc(-c3csc(Cc4c(Cl)cccc4Cl)n3)ccc2c1 [Example 6]
3. Brc1c(OCc2nnn[nH]2)ccc2cc(-c3csc(-c4ccccc4)n3)ccc12 [Example 5]

1: 4; 2: 21; 3: 42

###

- assayed.system: recombinant human plasminogen activator inhibitor-1 (PAI-1) (Homo sapiens)
- Construct: purchased Molecular Innovations, Royal Oak, Mich
- assay.info: Primary screen for the PAI-1 inhibition
- Assay type: biochemical
- reported.conditions: 25 μM test compound
Exercise: state measured inhibition at 25 µM for each of the compounds provided.
Numbers only, in %.

In the examples that follow, each entry is paired with its recorded inhibition at 25 µM.
>>> df
                                   compound        endpoint_name  measured_value
0  O=C(O)C(Cc1ccccc1)Oc1ccc2cc(-c3csc(-c4ccccc4)n3)ccc2c1Br (stereo not shown)  inhibition at 25 µM              49
1  O=C(O)c1ccc(COc2ccc3cc(-c4csc(-c5ccccc5)n4)ccc3c2Br)cc1  inhibition at 25 µM              49
2  Brc1c(OCc2nnn[nH]2)ccc2cc(-c3csc(-c4ccccc4)n3)ccc12  inhibition at 25 µM              64

Attention now shifts to the item below.
Any idea what inhibition at 25 µM was measured for O=C(O)C(Cc1ccccc1)Oc1ccc2cc(-c3nc(-c4ccccc4)sc3Br)ccc2c1Br (stereo not shown) ? 71

###

- assayed.system: recombinant human plasminogen activator inhibitor-1 (PAI-1) (Homo sapiens)
- Construct: purchased Molecular Innovations, Royal Oak, Mich
- assay.info: Primary screen for the PAI-1 inhibition
- Type: biochemical
- reported.conditions: 25 μM test compound
Exercise: state measured inhibition at 25 µM for each of the compounds provided.
One number for each entry, in %.

>>> print(df.to_string())
                                   compound        endpoint_name  unit_annotation  measured_value
0  O=C(O)COc1ccc2cc(-c3csc(-c4ccccc4)n3)ccc2c1Br  inhibition at 25 µM                %              68

Working through the 3 compounds below one at a time, give inhibition at 25 µM for each.
1. O=C(O)COc1ccc2cc(-c3csc(Cc4c(Cl)cccc4Cl)n3)ccc2c1
2. c1ccc(-c2nc(-c3ccc4cc(OCc5nnn[nH]5)ccc4c3)cs2)cc1
3. O=C(O)C(Cc1ccccc1)Oc1ccc2cc(-c3csc(-c4ccccc4)n3)ccc2c1 (stereo not shown)

1. 43
2. 59
3. 62
